# subject-of-test: peroxidase (horseradish peroxidase) (Raphanus sativus, UniProt K7N5L9)
# Sequence (K7N5L9 whole entry): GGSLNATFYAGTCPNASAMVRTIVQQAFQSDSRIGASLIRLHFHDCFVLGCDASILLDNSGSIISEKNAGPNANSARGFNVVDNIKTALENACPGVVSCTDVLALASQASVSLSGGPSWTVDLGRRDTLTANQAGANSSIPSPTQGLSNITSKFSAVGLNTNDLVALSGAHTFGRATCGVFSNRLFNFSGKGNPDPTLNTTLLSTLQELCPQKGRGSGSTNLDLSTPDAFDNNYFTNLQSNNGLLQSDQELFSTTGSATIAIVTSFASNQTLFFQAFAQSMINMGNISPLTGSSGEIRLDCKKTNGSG
# assay-info: Inhibition of horse radish peroxidase assessed as residual activity at 50 uM by amplex red dye based fluorescence assay
# condition-summary: horseradish peroxidase (isolated enzyme), probe Amplex Red, read-out: Activity
Each entry below carries its reported activity at 50 µM.
Please give a number only; it is taken to be in %.

Given the entry CCOC(=O)c1ccc(NC(=S)Nc2ccc3[nH]ccc3c2)cc1 , report its measured activity at 50 µM.
36.6

Same question, CC(=O)Nc1ccc(NC(=S)Nc2ccc3[nH]ccc3c2)cc1 this time
39.3

Same question, Oc1ccc(NC(=S)Nc2ccc3[nH]ccc3c2)cc1 this time
31

Same question, Cc1ccc(NC(=S)Nc2ccc3[nH]ccc3c2)c(O)c1 this time
36.2

Same question, S=C(Nc1ccc2[nH]ccc2c1)Nc1cccc2cnccc12 this time
47.9

***
Given the entry OCc1ccc(NC(=S)Nc2ccc3[nH]ccc3c2)cc1 , report its measured activity at 50 µM.
51.4

Same question, COc1ccc(NC(=S)Nc2ccc3[nH]ccc3c2)cc1 this time
46.5

Same question, Oc1c(Cl)cc(NC(=S)Nc2ccc3[nH]ccc3c2)cc1Cl this time
23.9

Same question, Oc1ccc(NC(=S)Nc2ccc3[nH]ccc3c2)cc1Cl this time
26.4

Same question, COc1ccc(CNC(=S)Nc2ccc3[nH]ccc3c2)cc1 this time
54.4

Same question, Oc1cc(Cl)ccc1NC(=S)Nc1ccc2[nH]ccc2c1 this time
35.9

Same question, S=C(Nc1ccc(Br)cc1)Nc1ccc2[nH]ccc2c1 this time
52.8

---

# subject-of-test: Amyloid beta-binding alcohol dehydrogenase (Homo sapiens, UniProt Q2L8D9)
# assay-info: Inhibition of ABAD (unknown origin) assessed as residual activity at 100 uM using acetoacetyl-CoA in presence of NADH by spectrophotometric assay relative to control
Each entry below carries its reported Activity.
Please give a number only; it is taken to be in %.

Below are worked cases with known answers.
Given the entry Oc1cccc(NC(=S)Nc2ccc3[nH]ccc3c2)c1 , report its measured Activity.
91.6

Same question, Oc1ccc(CNC(=S)Nc2ccc3[nH]ccc3c2)cc1O this time
81.5

Same question, Cc1ccc(NC(=S)Nc2ccc3[nH]ccc3c2)c(O)c1 this time
87.2

***
Given the entry S=C(Nc1ccc(Oc2ccccc2)cc1)Nc1ccc2[nH]ccc2c1 , report its measured Activity.
90.9

Same question, COc1ccc(NC(=S)Nc2ccc3[nH]ccc3c2)cc1OC this time
93.8

Same question, CC(=O)c1ccc(NC(=S)Nc2ccc3[nH]ccc3c2)cc1 this time
79.2

Same question, COc1ccc(CNC(=S)Nc2ccc3[nH]ccc3c2)cc1 this time
88.5

Same question, Oc1ccccc1NC(=S)Nc1ccc2[nH]ccc2c1 this time
85

Same question, S=C(Nc1ccc(Br)cc1)Nc1ccc2[nH]ccc2c1 this time
83

Same question, OCc1ccc(NC(=S)Nc2ccc3[nH]ccc3c2)cc1 this time
84.2

Same question, Oc1c(Cl)cc(NC(=S)Nc2ccc3[nH]ccc3c2)cc1Cl this time
39

Same question, S=C(Nc1ccccc1)Nc1ccc2[nH]ccc2c1 this time
85.8

Same question, COC(=O)c1cc(NC(=S)Nc2ccc3[nH]ccc3c2)ccc1O this time
90

Same question, CC(=O)Nc1ccc(NC(=S)Nc2ccc3[nH]ccc3c2)cc1 this time
93

Same question, CCOC(=O)c1ccc(NC(=S)Nc2ccc3[nH]ccc3c2)cc1 this time
74.6

Same question, O=C(c1ccccc1)c1ccc(NC(=S)Nc2ccc3[nH]ccc3c2)cc1 this time
80.4

Same question, COc1ccc(NC(=S)Nc2ccc3[nH]ccc3c2)cc1 this time
91.3

Same question, S=C(Nc1ccc2[nH]ccc2c1)Nc1cccc2cnccc12 this time
96.5

Same question, Oc1cc(Cl)ccc1NC(=S)Nc1ccc2[nH]ccc2c1 this time
76

Same question, Oc1ccc(NC(=S)Nc2ccc3[nH]ccc3c2)cc1 this time
90.9

Same question, Oc1ccc(NC(=S)Nc2ccc3[nH]ccc3c2)cc1Cl this time
49.1

---

# subject-of-test: peroxidase (horseradish peroxidase) (Raphanus sativus)
# assay-info: Inhibition of horse radish peroxidase assessed as residual activity at 5 uM by amplex red dye based fluorescence assay
# condition-summary: horseradish peroxidase (isolated enzyme), probe Amplex Red, read-out: Activity
measured-quantity: activity at 5 µM (%)
Please give a number only; it is taken to be in %.

Below are worked cases with known answers.
Given the entry S=C(Nc1ccccc1)Nc1ccc2[nH]ccc2c1 , report its measured activity at 5 µM.
81.4

Same question, Cc1ccc(NC(=S)Nc2ccc3[nH]ccc3c2)c(O)c1 this time
47.3

Same question, Oc1ccccc1NC(=S)Nc1ccc2[nH]ccc2c1 this time
43.9

Same question, CCOC(=O)c1ccc(NC(=S)Nc2ccc3[nH]ccc3c2)cc1 this time
65.8

***
Given the entry OCc1ccc(NC(=S)Nc2ccc3[nH]ccc3c2)cc1 , report its measured activity at 5 µM.
88.2

Same question, Oc1ccc(NC(=S)Nc2ccc3[nH]ccc3c2)cc1Cl this time
39.9

Same question, COc1ccc(CNC(=S)Nc2ccc3[nH]ccc3c2)cc1 this time
83.5

Same question, O=C(c1ccccc1)c1ccc(NC(=S)Nc2ccc3[nH]ccc3c2)cc1 this time
79.1

Same question, S=C(Nc1ccc(Br)cc1)Nc1ccc2[nH]ccc2c1 this time
82

Same question, S=C(Nc1ccc2[nH]ccc2c1)Nc1cccc2cnccc12 this time
63.3

Same question, COc1ccc(NC(=S)Nc2ccc3[nH]ccc3c2)cc1OC this time
61

Same question, CC(=O)Nc1ccc(NC(=S)Nc2ccc3[nH]ccc3c2)cc1 this time
68.1

---

Each entry below carries its reported activity at 50 µM.
# subject-of-test: peroxidase (horseradish peroxidase) (Raphanus sativus, UniProt K7N5L9)
# assay-info: Inhibition of horse radish peroxidase assessed as residual activity at 50 uM by amplex red dye based fluorescence assay
# condition-summary: horseradish peroxidase (isolated enzyme), probe Amplex Red, read-out: Activity
Please give a number only; it is taken to be in %.

Given the entry Oc1ccc(CNC(=S)Nc2ccc3[nH]ccc3c2)cc1O , report its measured activity at 50 µM.
31.2

***
Given the entry O=C(c1ccccc1)c1ccc(NC(=S)Nc2ccc3[nH]ccc3c2)cc1 , report its measured activity at 50 µM.
71.4

Same question, COc1ccc(NC(=S)Nc2ccc3[nH]ccc3c2)cc1OC this time
41.5

---

# subject-of-test: Amine oxidase [flavin-containing] B (Homo sapiens)
# Sequence (P27338 whole entry): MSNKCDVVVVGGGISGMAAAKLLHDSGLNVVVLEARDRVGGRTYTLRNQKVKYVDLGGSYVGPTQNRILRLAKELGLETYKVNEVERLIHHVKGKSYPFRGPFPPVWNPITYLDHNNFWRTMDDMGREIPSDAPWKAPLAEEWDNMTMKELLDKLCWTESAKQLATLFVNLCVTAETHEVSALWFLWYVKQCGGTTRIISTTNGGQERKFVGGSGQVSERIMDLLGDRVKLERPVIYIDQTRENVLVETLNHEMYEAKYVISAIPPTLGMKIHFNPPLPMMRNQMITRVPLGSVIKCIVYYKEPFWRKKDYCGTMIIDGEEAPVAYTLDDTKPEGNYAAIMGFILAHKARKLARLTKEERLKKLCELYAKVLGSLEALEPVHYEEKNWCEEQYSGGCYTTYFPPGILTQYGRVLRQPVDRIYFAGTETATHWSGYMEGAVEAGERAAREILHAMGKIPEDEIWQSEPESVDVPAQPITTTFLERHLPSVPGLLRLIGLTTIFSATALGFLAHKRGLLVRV
# assay-info: Inhibition of human membrane bound MAO-B expressed in insect cell membranes assessed as reduction in conversion of kynuramine to 4-hydroxyquinoline by spectrophotometric assay
# condition-summary: read-out: IC50
Each entry below carries its reported IC50.
Please give a number only; it is taken to be in µM.

Below are worked cases with known answers.
Given the entry Cc1ccc(NC(=S)Nc2ccc3[nH]ccc3c2)c(O)c1 , report its measured IC50.
3.2

Same question, Oc1ccccc1NC(=S)Nc1ccc2[nH]ccc2c1 this time
4

***
Given the entry Oc1ccc(NC(=S)Nc2ccc3[nH]ccc3c2)cc1Cl , report its measured IC50.
8.6

Same question, COc1ccc(NC(=S)Nc2ccc3[nH]ccc3c2)cc1 this time
37

Same question, Oc1ccc(NC(=S)Nc2ccc3[nH]ccc3c2)cc1 this time
17

Same question, CC(=O)Nc1ccc(NC(=S)Nc2ccc3[nH]ccc3c2)cc1 this time
37

---

# subject-of-test: peroxidase (horseradish peroxidase) (Raphanus sativus)
# assay-info: Inhibition of horse radish peroxidase assessed as residual activity at 50 uM by amplex red dye based fluorescence assay
# condition-summary: horseradish peroxidase (isolated enzyme), probe Amplex Red, read-out: Activity
measured-quantity: activity at 50 µM (%)
Please give a number only; it is taken to be in %.

Below are worked cases with known answers.
Given the entry Oc1cccc(NC(=S)Nc2ccc3[nH]ccc3c2)c1 , report its measured activity at 50 µM.
50.9

Same question, CC(=O)c1ccc(NC(=S)Nc2ccc3[nH]ccc3c2)cc1 this time
41.8

Same question, COC(=O)c1cc(NC(=S)Nc2ccc3[nH]ccc3c2)ccc1O this time
42.2

***
Given the entry Oc1ccccc1NC(=S)Nc1ccc2[nH]ccc2c1 , report its measured activity at 50 µM.
36.9

Same question, S=C(Nc1ccc(Oc2ccccc2)cc1)Nc1ccc2[nH]ccc2c1 this time
65.6

Same question, S=C(Nc1ccccc1)Nc1ccc2[nH]ccc2c1 this time
46.1

---

# assay-info: Solubility of the compound at 100 uM
# Format: physicochemical
measured-quantity: solubility

Given the entry COc1ccc(NC(=S)Nc2ccc3[nH]ccc3c2)cc1 , report its measured solubility.
Soluble

Same question, CC(=O)Nc1ccc(NC(=S)Nc2ccc3[nH]ccc3c2)cc1 this time
Soluble

Same question, S=C(Nc1ccc2[nH]ccc2c1)Nc1cccc2cnccc12 this time
Soluble

Same question, S=C(Nc1ccc(Br)cc1)Nc1ccc2[nH]ccc2c1 this time
Soluble

Same question, Cc1ccc(NC(=S)Nc2ccc3[nH]ccc3c2)c(O)c1 this time
Soluble

***
Given the entry OCc1ccc(NC(=S)Nc2ccc3[nH]ccc3c2)cc1 , report its measured solubility.
Soluble

Same question, Oc1ccc(NC(=S)Nc2ccc3[nH]ccc3c2)cc1Cl this time
Soluble

Same question, Oc1ccc(CNC(=S)Nc2ccc3[nH]ccc3c2)cc1O this time
Soluble

Same question, O=C(c1ccccc1)c1ccc(NC(=S)Nc2ccc3[nH]ccc3c2)cc1 this time
Soluble

Same question, S=C(Nc1ccc(Oc2ccccc2)cc1)Nc1ccc2[nH]ccc2c1 this time
Soluble
